test system: MDA-MB-435 melanoma; assay: NCI-60 one-dose screen, 48 h (100 = growth as untreated, 0 = no growth, -100 = all killed); conditions: 10 µM unless noted
This is part of a sample that, as a whole, favours compounds with a hit. Of some 83,000 tested, about 20% had one in any assay.
Class assignment keyed on growth, ranges low-valued (below 30%), mid-valued (30% to below 90%), high-valued (90% or more)

>  <compound>
CCCCCCNC(=O)Oc1ccc(/C(=C(/C)c2ccccc2)c2ccc(OCCN3CCCCCC3)cc2)cc1

>  <label.value>
mid-valued

$$$$
>  <compound>
CO/N=C1\CCc2c(sc(NC(=O)c3cccc(C(F)(F)F)c3)c2C(N)=O)C1

>  <label.value>
mid-valued

$$$$
>  <compound>
O=C1[C@H]2Cc3c([nH]c4ccccc34)[C@@H](c3ccc(Br)cc3)N2C(=O)CN1C1CCN(Cc2ccccc2)CC1

>  <label.value>
mid-valued

$$$$
>  <compound>
C[C@@H]1CN(c2ccc3ncc(C#Cc4cncc(C(=O)Nc5ccc(CN6CCN(C)CC6)c(C(F)(F)F)c5)c4)n3n2)C[C@H](C)O1

>  <label.value>
low-valued

$$$$
>  <compound>
Clc1ccc(-c2cn3cc(Cc4ccc(Cl)c(Cl)c4)sc3n2)cc1

>  <label.value>
mid-valued

$$$$
>  <compound>
c1ccc2c(NCCCn3ccnc3)c3oc4ccccc4c3nc2c1

>  <label.value>
low-valued

$$$$
>  <compound>
CCCC(=O)NC(c1ccc2c(c1)OC(F)(F)O2)c1cc(C)c2cccnc2c1O (stereo not drawn)

>  <label.value>
low-valued

$$$$
>  <compound>
O=C(c1ccc(Cl)cc1)C1[C@H](c2ccc(Cl)cc2)[C@@H](c2ccccc2)NC12C(=O)Nc1ccc(Br)cc12 (stereo partly drawn)

>  <label.value>
mid-valued

$$$$

Please look at the following compound next.
Problem: Hi there! Could you help me figure out the category for Cc1cc(=O)oc2cc(OCCCOc3ccc(/C=C/C(=O)Nc4ccc(Cl)cc4)cc3)ccc12 please?
Result: mid-valued

====

system: MALME-3M melanoma; assay: NCI-60 one-dose screen, 48 h; conditions: 10 µM unless noted
The panel holds about 83,000 compounds, 20% with a hit somewhere; the sample as a whole holds those more often. Activity calls are given as the source filed them. Rule for the calls: active = growth percent below 10; inactive = the rest.
Returns: one label drawn from active, inactive

>  <molecule>
CNC(=O)c1cc(-c2ccc(NC(=O)Nc3ccc(N4CCN(C)CC4)c(C(F)(F)F)c3)cc2)nc2cccnc12

>  <label.value>
active

$$$$
>  <molecule>
C/C(=N/NC(N)=S)c1ccc(Nc2nc(SCC(C)C)nc(-c3ccc(F)cc3)c2C#N)cc1

>  <label.value>
inactive

$$$$
>  <molecule>
O=C1/C(=C/C2=Cc3ccccc3OC2)SC(=S)N1c1ccc(F)cc1

>  <label.value>
inactive

$$$$
>  <molecule>
CCOC(=O)c1c(Nc2ccccc2)nn2c(N)c(C#N)c(-c3ccc(Cl)cc3)nc12

>  <label.value>
inactive

$$$$
>  <molecule>
O=C(CN1C(=O)/C(=C/c2ccccc2)SC1=S)N1CCOCC1

>  <label.value>
inactive

$$$$
>  <molecule>
CCOC(=O)c1c(Nc2ccccc2)nn2c(N)c(C#N)c(-c3ccc(F)cc3)nc12

>  <label.value>
inactive

$$$$
>  <molecule>
CCCSc1nc(Nc2ccc(/C(C)=N\NC(N)=S)cc2)c(C#N)c(-c2ccc(OC)cc2)n1

>  <label.value>
inactive

$$$$
>  <molecule>
O=C(NNc1nc2cc(F)ccc2n2c(CN3CC4(COC4)C3)ccc12)c1cnccn1

>  <label.value>
inactive

$$$$
>  <molecule>
CN(C)CCCNc1c2ccc(Cl)cc2nc2c1oc1ccc(Cl)cc12

>  <label.value>
inactive

$$$$
>  <molecule>
C=CCn1c(SCC(=O)c2ccc(Br)cc2)nnc1-c1c[nH]c2ccccc12

>  <label.value>
inactive

$$$$

Please look at the following molecule next.
Problem: Tell me the recorded outcome of this test for Cc1ccc(/C=C/c2nn3c(-c4ccco4)nnc3s2)cc1C .
Result: inactive
